# inhibition at 1 µM values compiled below
System: NF-κB promoter, THP1-Lucia™ NF-κB cell line
Assay: NF-κB promoter inhibition, THP1-Lucia NF-κB cell line
Type: cell-based
Details: 1 μM; 100 ng/ml LPS, 24 hours; read-out: NF-κB, % inhibition degree
Use % as the unit, but write only the number.

Q: Missing value: inhibition at 1 µM, NF-κB promoter, THP1-Lucia™ NF-κB cell line, entry Cn1cc(-c2ccc3[nH]c4ncnc(Nc5ccc(N6CCNCC6)cc5)c4c3c2)cn1 . Fill in?
Result: 24

Q: NF-κB promoter, THP1-Lucia™ NF-κB cell line / inhibition at 1 µM / Fc1ccc(-c2ccc3[nH]c4ncnc(N[C@H]5CC[C@H](N6CCOCC6)CC5)c4c3c2)cc1 : value?
Result: 28
